src = PubChem BioAssay (NCI)

test.protocol: NCI Yeast Anticancer Drug Screen. Data for the sgs1 mgt1 strain (AID 161)
applied.conditions: S. cerevisiae sgs1 mgt1 strain, at 50.0 µM (retest, dose inferred, filed as 5.0)
The panel holds about 79,000 compounds, 15% with a hit somewhere; the sample as a whole holds those more often. Activity calls are given as the source filed them. Rule as the data show it: active = growth inhibition above about 70%; inactive = the rest.
Output constraint: value belongs to True = active, False = inactive

State the result this test recorded for OC1CCCc2c1cc1ccc3cccc4ccc2c1c34 (stereo not drawn) . True

State the result this test recorded for `CCCC/C=C/C(CC)(C(=O)OCC)C(=O)OCC` . False

State the result this test recorded for `Cn1c(N)nc(-c2ccc(Cl)cc2)c1SSc1c(-c2ccc(Cl)cc2)nc(N)n1C` . False

State the result this test recorded for `S=C(S)NN1CCOCC1` . True

State the result this test recorded for `Cc1ccc(NN(NC(=O)OC(C)C)C(=O)OC(C)C)cc1` . False

State the result this test recorded for `Oc1ccc(NCn2c(=S)sc3ccccc32)cc1` . True

State the result this test recorded for `CCCCCCCCCCCC(=O)N(C)C` . True

State the result this test recorded for `c1ccc(-c2ccnc3c2ccc2c(-c4ccccc4)ccnc23)cc1` . True

State the result this test recorded for `Cc1[nH]c2ccccc2c1C(c1ccc(N)cc1)c1c(C)[nH]c2ccccc12` . True

State the result this test recorded for `Cc1cc(I)ccc1N` . True

State the result this test recorded for `CSc1nc(=S)[nH]c2c1c(C)nn2-c1ccccc1` . True

State the result this test recorded for O=[N+]([O-])c1ccc2c(c1)C(N1CCN(CCO)CC1)Cc1ccc(F)cc1S2 (stereo not drawn) . True

State the result this test recorded for `Oc1cccc2c(Cl)ccnc12` . True
